Test: Solubility of docetaxel in trehalose or water
Assay type: physicochemical
property name: solubility

q: Fill in solubility for record CC(=O)O[C@@]12CO[C@@H]1C[C@H](O)[C@@]1(C)C(=O)[C@H](O)C3=C(C)[C@@H](OC(=O)[C@H](O)[C@@H](NC(=O)OC(C)(C)C)c4ccccc4)C[C@@](O)([C@@H](OC(=O)c4ccccc4)[C@H]21)C3(C)C [docetaxel]
a: ~20 µM
